Biological target: 5-hydroxytryptamine receptor 2C (Rattus norvegicus)
Sequence (P08909 whole entry): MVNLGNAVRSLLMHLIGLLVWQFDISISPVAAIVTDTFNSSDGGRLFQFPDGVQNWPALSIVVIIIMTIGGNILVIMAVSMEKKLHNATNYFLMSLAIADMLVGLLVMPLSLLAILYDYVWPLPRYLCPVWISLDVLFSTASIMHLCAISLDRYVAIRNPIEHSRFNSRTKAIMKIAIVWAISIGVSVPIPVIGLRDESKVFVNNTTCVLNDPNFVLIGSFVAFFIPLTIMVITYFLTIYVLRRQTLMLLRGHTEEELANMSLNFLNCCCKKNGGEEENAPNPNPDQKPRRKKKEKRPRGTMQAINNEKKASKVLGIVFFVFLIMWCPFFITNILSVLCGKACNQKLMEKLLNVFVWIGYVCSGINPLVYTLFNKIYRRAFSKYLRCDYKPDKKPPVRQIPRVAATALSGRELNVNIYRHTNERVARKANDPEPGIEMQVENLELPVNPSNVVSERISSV
quantity-name: pKi
Just the number, please; pKi means minus log10 of the concentration in mol/L.

Incoming: Reported pKi for `c1cnc(N2CCN(CCCc3nc4ccccc4s3)CC2)nc1` : what is it?
Outgoing: 6.55

Data credit: ChEMBL document CHEMBL3286287
